SYSTEM TESTED: COX-1 (Mus musculus)
Sequence (P22437 1-602): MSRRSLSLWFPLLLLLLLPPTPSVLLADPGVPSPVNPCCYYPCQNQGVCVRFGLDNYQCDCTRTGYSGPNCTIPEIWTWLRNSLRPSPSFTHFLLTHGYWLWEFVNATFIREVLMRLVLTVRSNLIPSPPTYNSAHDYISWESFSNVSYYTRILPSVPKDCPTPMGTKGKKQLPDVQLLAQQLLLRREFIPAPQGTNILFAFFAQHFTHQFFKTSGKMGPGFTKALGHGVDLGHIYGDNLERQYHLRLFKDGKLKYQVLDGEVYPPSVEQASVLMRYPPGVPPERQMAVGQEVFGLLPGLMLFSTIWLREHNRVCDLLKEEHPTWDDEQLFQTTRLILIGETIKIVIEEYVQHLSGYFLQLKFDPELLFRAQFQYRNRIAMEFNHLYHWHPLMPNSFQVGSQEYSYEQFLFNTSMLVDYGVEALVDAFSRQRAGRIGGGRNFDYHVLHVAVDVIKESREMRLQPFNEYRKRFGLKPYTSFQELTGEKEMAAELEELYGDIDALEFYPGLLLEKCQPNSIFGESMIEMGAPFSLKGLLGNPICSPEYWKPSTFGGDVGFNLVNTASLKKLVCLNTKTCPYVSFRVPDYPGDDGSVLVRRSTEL
TEST METHOD NOTES: Macrophage assay (RAW264.7), COX-1
Assay type: cell-based, murine
CONDITION SET: Table 3; macrophage assay
From the text: Thus, NSAID derivatives that are identified as potentially useful in the methods described herein can be further tested using, for example, the RAW264.7 murine macrophage cell line. These cells are readily available (for example, from the American Type Culture Collection (ATCC), Manassas, Va., United States of America) and are easily cultured in large numbers. They normally express low levels of COX-1 and very low to undetectable levels of COX-2. […]
REPORTED ENDPOINT: IC50

Examples with answers:
COc1ccc2c(c1)c(CC(=O)NCCCCNS(=O)(=O)c1cccc3c(N(C)C)cccc13)c(C)n2C(=O)c1ccc(Cl)cc1 [Compound 27z] ... > 1000 nM
CCN(CC)c1ccc2c(-c3ccc(S(=O)(=O)NCCOCCOCCOCCOCCC(=O)NCCCCNC(=O)Cc4c(C)n(C(=O)c5ccc(Cl)cc5)c5ccc(OC)cc45)cc3S(=O)(=O)[O-])c3ccc(=[N+](CC)CC)cc-3oc2c1 ... > 5000 nM

# input compound: COc1ccc2c(c1)c(CC(=O)NCCCCNC(=O)c1ccc(C(=O)O)c(-c3c4ccc(=O)cc-4oc4cc(O)ccc34)c1)c(C)n2C(=O)c1ccc(Cl)cc1 [Compound 27qq] ; wanted: its IC50
> 5000 nM

And COc1ccc2c(c1)c(CC(=O)NCCNS(=O)(=O)c1ccc(/N=N/c3ccc(N(C)C)cc3)cc1)c(C)n2C(=O)c1ccc(Cl)cc1 [Compound 27aa] ?
> 2500 nM

And COc1ccc2c(c1)c(CC(=O)NCCCNS(=O)(=O)c1cccc3c(N(C)C)cccc13)c(C)n2C(=O)c1ccc(Cl)cc1 [Compound 27y] ?
> 1000 nM
